In this section we review reported concentration at 12 h values for a set of molecules.
experiment: Tissue concentrations of Formula I and its metabolites in Göttingen pigs after a single oral or intravenous dose (LC-MS/MS); type: in vivo; settings: both sexes, Göttingen, pig (minipig); liver; single oral dose of Formula I 125 mg/kg; 12 hpd; read-out: Tissue concentration in Göttingen pig liver (Table 7)
Enter your answer as a number in nM; do not include the unit.

Illustrative cases are given below, each with its answer.
CC1(O)[C@@H](O)[C@@H](COP(=O)(O)O)O[C@H]1n1ccc(=O)[nH]c1=S (stereo partly shown) | 1640
C[C@H](NP(=O)(O)OC[C@H]1O[C@@H](n2ccc(=O)[nH]c2=S)C(C)(O)C1O)C(=O)O (stereo in doubt) | 475
C[C@@]1(O)[C@H](O)[C@@H](CO)O[C@H]1n1ccc(=O)[nH]c1=S | 9460

Now take the following molecule into account.
Q: Return value of concentration at 12 h for input CC1(O)[C@@H](O)[C@@H](COP(=O)(O)OP(=O)(O)OP(=O)(O)O)O[C@H]1n1ccc(=O)[nH]c1=S (stereo partly shown) , no commentary.
Ans: 880
